experimental details: Solubility of IP2015 in aqueous and non-aqueous vehicles (visual, HPLC content)
Format: physicochemical
details: pH 3.0 Acetate buffer
quantity measured: solubility (mg/mL)
Output spec: scalar in mg/mL, unitless text.

// sample `COc1cc2ccc(O[C@@H]3C[C@H]4CC[C@@H](C3)N4)cc2oc1=O` , its solubility was 1.17

* * *

experimental details: Solubility of IP2015 in aqueous and non-aqueous vehicles (visual, HPLC content)
Type: physicochemical
details: pH 5.8 Potassium Phosphate buffer
quantity measured: solubility (µg/mL)
Answer in µg/mL, number only, no unit symbol.

Sure, the documented solubility for COc1cc2ccc(O[C@@H]3C[C@H]4CC[C@@H](C3)N4)cc2oc1=O [IP2015] is 104

Hello, the source for this data is patent EP4731189B1, in case you need it.
